# Target entity: Cdk9/cyclinT1 (Homo sapiens (Human), UniProt P50750)
# Sequence (P50750 whole entry): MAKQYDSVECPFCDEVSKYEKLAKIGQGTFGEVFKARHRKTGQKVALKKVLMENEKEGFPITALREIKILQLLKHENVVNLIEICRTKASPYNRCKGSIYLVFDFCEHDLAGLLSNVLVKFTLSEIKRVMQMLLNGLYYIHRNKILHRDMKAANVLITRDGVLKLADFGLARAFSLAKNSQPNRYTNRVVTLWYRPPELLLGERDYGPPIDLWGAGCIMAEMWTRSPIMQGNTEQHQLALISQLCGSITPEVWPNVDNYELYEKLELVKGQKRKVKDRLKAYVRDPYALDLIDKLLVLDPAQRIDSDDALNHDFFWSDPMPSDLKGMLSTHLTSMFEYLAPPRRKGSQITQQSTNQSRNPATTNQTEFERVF
# Sequence (O60563 whole entry partner): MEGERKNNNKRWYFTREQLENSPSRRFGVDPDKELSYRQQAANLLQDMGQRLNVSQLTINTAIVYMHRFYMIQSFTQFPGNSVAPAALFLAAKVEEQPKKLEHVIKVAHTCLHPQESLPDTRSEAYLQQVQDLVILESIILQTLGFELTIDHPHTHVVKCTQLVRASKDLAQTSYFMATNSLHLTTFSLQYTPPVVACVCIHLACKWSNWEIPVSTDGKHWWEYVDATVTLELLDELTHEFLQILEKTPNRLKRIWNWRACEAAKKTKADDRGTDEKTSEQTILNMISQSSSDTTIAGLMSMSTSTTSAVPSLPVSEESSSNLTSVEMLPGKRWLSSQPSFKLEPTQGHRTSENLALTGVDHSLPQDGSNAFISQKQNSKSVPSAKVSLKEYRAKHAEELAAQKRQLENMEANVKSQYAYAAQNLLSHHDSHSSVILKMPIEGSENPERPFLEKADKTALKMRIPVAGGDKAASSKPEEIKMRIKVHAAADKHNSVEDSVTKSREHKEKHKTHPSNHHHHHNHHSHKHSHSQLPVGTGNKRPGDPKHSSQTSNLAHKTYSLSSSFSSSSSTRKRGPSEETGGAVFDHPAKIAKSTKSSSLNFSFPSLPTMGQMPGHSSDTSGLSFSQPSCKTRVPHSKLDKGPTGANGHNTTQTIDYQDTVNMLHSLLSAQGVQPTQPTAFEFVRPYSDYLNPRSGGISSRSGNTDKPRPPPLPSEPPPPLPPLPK
# Test: Cdk9/CyclinT1 IMAP Protocol (fluorescence polarization kinase assay)
# Conditions used: Table 2; generated using one of the two Cdk9/cyclinT1 assays (IMAP or Alpha Screen), not specified which; unit inferred
Assay endpoint: pIC50
Notebook: values listed as pIC50 are -log10 of the concentration (mol/L).

{"columns": ["Molecule", "Target entity", "Assay endpoint", "Quantitative result"],
 "data": [
  ["Fc1cc(F)cc(CNc2cccc(-c3cc(N[C@@H]4CCCNC4)ncc3Cl)n2)c1 [Compound 92]", "Cdk9/cyclinT1 (Homo sapiens (Human), UniProt P50750)", "pIC50", 6.53]
]}

Problem: Name the reported pIC50 value associated with the molecule N[C@H]1CC[C@H](Nc2cc(-c3cnc(Cl)c(NCC4CCOCC4)n3)c(Cl)cn2)CC1 [Compound 221]
Solution: 8.10

Problem: Which pIC50 is reported for this molecule? CC1(CNc2cccc(-c3cc(N[C@H]4CC[C@H](N)CC4)ncc3Cl)n2)CCOCC1 [Compound 311]
Solution: 9.00

Problem: GET /values?readout=pIC50&item= N[C@H]1CC[C@H](Nc2cc(-c3cccc(NCC4CCCCC4)n3)ccn2)CC1 [Compound 2]
Solution: 7.59

Problem: Return reported pIC50; argument: CS(=O)(=O)CCN[C@H]1CC[C@H](Nc2cc(-c3nc(NCC4CCOCC4)ccc3Cl)c(Cl)cn2)CC1 [Compound 254]
Solution: 8.08

* * *

# Target entity: Cdk9/cyclinT1 (Homo sapiens (Human), UniProt P50750)
# Test: Cdk9/CyclinT1 IMAP Protocol (fluorescence polarization kinase assay)
# Conditions used: Table 2; generated using one of the two Cdk9/cyclinT1 assays (IMAP or Alpha Screen), not specified which; unit inferred
Reported IC50 values for a set of compounds

{"columns": ["Compound", "Assay endpoint", "Result"],
 "data": [
  ["CCc1ncc(-c2cc(N[C@H]3CC[C@H](N)CC3)ncc2Cl)nc1NCC1CCOCC1 [Compound 241]", "IC50", "61.8 nM"],
  ["N[C@H]1CC[C@H](Nc2cc(-c3cccc(NCc4cccc(F)c4)n3)c(Cl)cn2)CC1 [Compound 1]", "IC50", "7.95 nM"],
  ["CCN[C@H]1CC[C@H](Nc2cc(-c3cccc(NCC4(C#N)CCOCC4)n3)c(Cl)cn2)CC1 [Compound 360]", "IC50", "0.28 nM"]
]}

Next up:
Problem: Look up IC50 for this compound: NC(=O)c1ccc(-c2cc(N[C@H]3CC[C@H](N)CC3)ncc2Cl)nc1NCc1cccc(F)c1 [Compound 138]
Solution: 522 nM

* * *

# Target entity: Cdk9/cyclinT1 (Homo sapiens (Human), UniProt P50750)
# Test: Cdk9/CyclinT1 IMAP Protocol (fluorescence polarization kinase assay)
# Format: biochemical
# Conditions used: Table 2; generated using one of the two Cdk9/cyclinT1 assays (IMAP or Alpha Screen), not specified which; unit inferred
pIC50: −log10 of the molar value.
Class (by pIC50) -- interval 1 = under 7, interval 2 = from 7 up to 8, interval 3 = 8 and over

Some entries whose results are on file:
{"columns": ["Chemical smiles", "Discrete label"],
 "data": [
  ["Clc1cnc(NC[C@@H]2CCCN2)cc1-c1cccc(NCC2CCOCC2)n1", "interval 1"],
  ["Fc1cccc(CNc2cccc(-c3cc(N[C@H]4CCCOC4)ncc3Cl)n2)c1", "interval 1"]
]}

Problem: Bin this entry: `NC[C@H]1CC[C@H](Nc2cc(-c3cccc(NCc4cc(F)ccc4F)n3)c(Cl)cn2)CC1`
Solution: interval 2

Problem: Looking at `CNC(=O)[C@H]1CC[C@H](Nc2cc(-c3cccc(NCc4cccc(F)c4)n3)c(Cl)cn2)CC1` , which class would you pick?
Solution: interval 2

Problem: Which class holds `N[C@H]1CCCC[C@H]1Nc1cc(-c2cccc(NCc3cccc(F)c3)n2)c(Cl)cn1` ?
Solution: interval 1

Problem: Which category does the recorded pIC50 put `COC[C@@H](C)N[C@H]1CC[C@H](Nc2cc(-c3nc(NCC4CCOCC4)ccc3F)c(Cl)cn2)CC1` in?
Solution: interval 3

Problem: Category of `N[C@H]1CC[C@H](Nc2cc(-c3cc(C(=O)O)cc(NCc4cccc(F)c4)n3)c(Cl)cn2)CC1` , please.
Solution: interval 2

Problem: Form: Item = `Clc1cnc(NC[C@H]2CCCN2)cc1-c1cccc(NCC2CCOCC2)n1` ; Class = ?
Solution: interval 1

Problem: Band of `COC[C@@H](C)N[C@H]1CC[C@H](Nc2cc(-c3nc(NC[C@H]4CCCOC4)ccc3Cl)c(Cl)cn2)CC1` ?
Solution: interval 3
